Quick reference: IC50 of the listed items.
- Tested on: SK (melanoma)
- protocol details: Cytotoxicity (sulphorhodamine B), cancer cell line, Table 1B
- Assay type: cell-based
- study conditions: 72 h
# do not omit the unit; it follows the number

Consider the following illustrative entries.
smiles repr	experimental target	reading
CC(=O)O[C@H]1C(=O)[C@@]2(C)[C@H]([C@H](OC(=O)c3ccccc3)[C@]3(O)C[C@H](OC(=O)[C@H](OC(=O)OCCSc4ccccc4)[C@@H](NC(=O)c4ccccc4)c4ccccc4)C(C)=C1C3(C)C)[C@]1(OC(C)=O)CO[C@@H]1C[C@@H]2O	SK (melanoma)	10 µM
CC(=O)O[C@H]1C(=O)[C@]2(C)[C@@H](OC(=O)CSCC(=O)O)C[C@H]3OC[C@@]3(OC(C)=O)[C@H]2[C@H](OC(=O)c2ccccc2)[C@]2(O)C[C@H](OC(=O)[C@H](OC(=O)CSCC(=O)O)[C@@H](NC(=O)c3ccccc3)c3ccccc3)C(C)=C1C2(C)C	SK (melanoma)	10 µM

// switching to the query molecule
Data request: Param item = COC(=O)CS(=O)(=O)CC(=O)O[C@@H](C(=O)O[C@H]1C[C@@]2(O)[C@@H](OC(=O)c3ccccc3)[C@@H]3[C@]4(OC(C)=O)CO[C@@H]4C[C@H](O)[C@@]3(C)C(=O)[C@H](OC(C)=O)C(=C1C)C2(C)C)[C@@H](NC(=O)c1ccccc1)c1ccccc1 ; retrieve measured IC50.
Data returned: 10 µM

Cited source: patent US5817840A
